Molecular target: HaloTag-ING2 PHD (mouse Ing2 200-280)
Test: peptide microarray binding signal (635 nm), min-max normalized on array (fraction of array maximum); higher = stronger binding
Conditions: peptide region: Unmod H1 variant; binder concentration: 10 nM

>  <Binder>
KPKAAKARVTKPK [Unmod H1 variant K P K A A K A R V T K P K]

>  <peptide microarray binding signal>
0.00173

$$$$
>  <Binder>
AVAASKERSGVSL [Unmod H1 variant A V A A S K E R S G V S L]

>  <peptide microarray binding signal>
0.011

$$$$
>  <Binder>
KAKKAGAAKAKKP [Unmod H1 variant K A K K A G A A K A K K P]

>  <peptide microarray binding signal>
0.00424

$$$$
